# test summary: Pharmacokinetics of acteoside and its metabolites in rat plasma after oral acteoside (UPLC-QqQ-MS)
# Assay type: in vivo, male Sprague–Dawley rats
# condition info: male, Sprague-Dawley, rat, plasma, po, 100 mg/kg, acteoside in rat plasma, oral acteoside 100 mg/kg, UCP group (21 days UCP before), n = 6
quantity kind: AUC(0-t) (ng·h/mL)

{"molecule": "C[C@@H]1O[C@@H](O[C@@H]2[C@@H](O)[C@H](OCCc3ccc(O)c(O)c3)O[C@H](CO)[C@H]2OC(=O)/C=C/c2ccc(O)c(O)c2)[C@H](O)[C@H](O)[C@H]1O [Acteoside, acteoside]", "quantity kind": "AUC(0-t)", "quantitative result": 4980}

---

# test summary: Pharmacokinetics of acteoside and its metabolites in rat plasma after oral acteoside (UPLC-QqQ-MS)
# Format: in vivo, male Sprague–Dawley rats
# condition info: male, Sprague-Dawley, rat, plasma, po, 100 mg/kg, acteoside in rat plasma, oral acteoside 100 mg/kg, Control group, n = 6; read-out: MRT(0-t)

{"molecule": "C[C@@H]1O[C@@H](O[C@@H]2[C@@H](O)[C@H](OCCc3ccc(O)c(O)c3)O[C@H](CO)[C@H]2OC(=O)/C=C/c2ccc(O)c(O)c2)[C@H](O)[C@H](O)[C@H]1O [Acteoside, acteoside]", "MRT last, h": 3.94}

---

# test summary: Pharmacokinetics of acteoside and its metabolites in rat plasma after oral acteoside (UPLC-QqQ-MS)
# Type: in vivo, male Sprague–Dawley rats
# condition info: male, Sprague-Dawley, rat, plasma, po, 100 mg/kg, acteoside in rat plasma, oral acteoside 100 mg/kg, WCP group, n = 6; read-out: MRT(0-∞)
quantity kind: MRT inf (h)

{"compound": "C[C@@H]1O[C@@H](O[C@@H]2[C@@H](O)[C@H](OCCc3ccc(O)c(O)c3)O[C@H](CO)[C@H]2OC(=O)/C=C/c2ccc(O)c(O)c2)[C@H](O)[C@H](O)[C@H]1O [Acteoside, acteoside]", "unit name": "h", "quantitative result": 5.6}

---

# test summary: Pharmacokinetics of acteoside and its metabolites in rat plasma after oral acteoside (UPLC-QqQ-MS)
# Format: in vivo, male Sprague–Dawley rats
# condition info: male, Sprague-Dawley, rat, plasma, po, 100 mg/kg, metabolite in rat plasma following oral acteoside 100 mg/kg, WCP group, n = 6
# Source text: After a week of acclimatization, rats were split into three groups at random: the wine-processed Cistanche polysaccharide group (WCP group), the unprocessed Cistanche polysaccharide group (UCP group), and the blank control group (Control group). Six rats each group were raised in the same cage for breeding. Prior to the experiment, provide water and regular laboratory meals to the rats at will and fast for one night before the experiment. […]
Listed here: items and their measured Tmax.

{"compound": "OCCc1ccc(O)c(O)c1 [Hydroxytyrosol, hydroxytyrosol]", "Tmax, min": 15}
{"compound": "O=C(O)/C=C/c1ccc(O)c(O)c1 [Caffeic acid, caffeic acid]", "Tmax, min": 45}

---

# test summary: Pharmacokinetics of acteoside and its metabolites in rat plasma after oral acteoside (UPLC-QqQ-MS)
# Assay type: in vivo, male Sprague–Dawley rats
# condition info: male, Sprague-Dawley, rat, plasma, po, 100 mg/kg, acteoside in rat plasma, oral acteoside 100 mg/kg, UCP group, n = 6
quantity kind: Tmax (min)

{"molecule": "C[C@@H]1O[C@@H](O[C@@H]2[C@@H](O)[C@H](OCCc3ccc(O)c(O)c3)O[C@H](CO)[C@H]2OC(=O)/C=C/c2ccc(O)c(O)c2)[C@H](O)[C@H](O)[C@H]1O [Acteoside, acteoside]", "quantity kind": "Tmax", "quantitative result": 45}
